molecular target: human DP2 (Homo sapiens (Human), UniProt Q9Y5Y4); assay: DP-2 Binding Inhibition Assay (3H-PGD2 binding to membranes of K562 cells expressing DP2); conditions: read-out: EC50 (nM) 4% HSA; inhibition of 3H-PGD2 binding, 4% HSA
Sequence (Q9Y5Y4 whole entry): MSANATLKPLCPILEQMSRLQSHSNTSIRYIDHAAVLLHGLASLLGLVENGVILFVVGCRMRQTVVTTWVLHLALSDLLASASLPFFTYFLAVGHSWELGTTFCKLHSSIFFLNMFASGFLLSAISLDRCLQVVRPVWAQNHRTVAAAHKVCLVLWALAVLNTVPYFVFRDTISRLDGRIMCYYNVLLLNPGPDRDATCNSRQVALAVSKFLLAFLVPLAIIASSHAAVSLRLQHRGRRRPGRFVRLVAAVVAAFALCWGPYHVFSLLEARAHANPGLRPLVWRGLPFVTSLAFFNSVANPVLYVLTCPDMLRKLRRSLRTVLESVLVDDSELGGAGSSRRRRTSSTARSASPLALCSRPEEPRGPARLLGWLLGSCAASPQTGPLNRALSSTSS
Reported Endpoint: EC50 (nM)

The examples below pair each entry with its known result.
{"columns": ["Compound", "Unit Label", "EC50"],
 "data": [
  ["O=C(NCC1Cc2ccccc2C1)c1ccc(Oc2cc3c(cc2Cl)C(C(=O)O)CCO3)cc1 (stereo not drawn)", "nM", 174],
  ["O=C(N[C@H]1CCCN(c2cccc(Cl)c2)C1)c1ccc(Oc2cc3c(cc2Cl)C(C(=O)O)CCO3)cc1 (stereo partly drawn)", "nM", 421],
  ["CC(C)(C)CCNC(=O)c1ccc(Oc2cc3c(cc2Cl)C(C(=O)O)CCO3)cc1 (stereo not drawn)", "nM", 1110],
  ["O=C(NCCCCc1cccc(Cl)c1)c1ccc(Oc2cc3c(cc2Cl)C(C(=O)O)CCO3)cc1 (stereo not drawn)", "nM", 824]
]}

1 = O=C(NCCc1ccc(C(F)(F)F)cc1C(F)(F)F)c1ccc(Oc2cc3c(cc2Cl)C(C(=O)O)CCO3)cc1 (stereo not drawn)
2 = CC(C)(C)C1CCC(NC(=O)c2ccc(Oc3cc4c(cc3Cl)C(C(=O)O)CCO4)cc2)CC1 (stereo not drawn)
-- ask Please choose the item with the lower EC50 value from this pair: 1 and 2 Refer to your chosen item by its label in the answer.
-- reply 1
(1: 45 nM, 2: 509 nM)
